Values compiled from patent US8969312B2.

# MEASURED ON: human liver microsomal cytochrome P450 2E1 (CYP2E1) (Homo sapiens)
# Sequence (P05181 whole entry): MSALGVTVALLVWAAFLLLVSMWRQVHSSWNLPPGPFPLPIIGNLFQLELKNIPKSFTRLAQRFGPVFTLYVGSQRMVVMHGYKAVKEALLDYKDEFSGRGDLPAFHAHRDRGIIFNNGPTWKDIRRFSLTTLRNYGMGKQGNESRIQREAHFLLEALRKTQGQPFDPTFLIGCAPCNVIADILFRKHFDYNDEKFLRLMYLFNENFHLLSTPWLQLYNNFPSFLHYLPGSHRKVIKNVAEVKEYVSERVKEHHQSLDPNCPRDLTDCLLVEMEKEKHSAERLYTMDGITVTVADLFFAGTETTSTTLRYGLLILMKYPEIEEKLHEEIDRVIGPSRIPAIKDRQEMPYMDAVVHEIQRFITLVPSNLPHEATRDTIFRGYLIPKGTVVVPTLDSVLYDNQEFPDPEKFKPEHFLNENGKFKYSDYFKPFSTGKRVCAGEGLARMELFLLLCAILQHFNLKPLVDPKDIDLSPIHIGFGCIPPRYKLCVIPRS
# PROTOCOL: Human liver microsomal CYP2E1, chlorzoxazone 6-hydroxylation;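 note: chlorzoxazone added as substrate, 6-hydroxychlorzoxazone formation quantified by LC/MS/MS after 30 min at 37 °C with NADP+ regenerating system, compared against solvent control without test sample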
# MEASUREMENT CONTEXT: Table 6; minimum tested concentration (mg/L) × volume of human liver and intestine (3 L)
MEASUREMENT LABEL: Minimum Effective Dose
Entry format: amount then unit.

Example compounds with recorded Minimum Effective Dose:
| COMPOUND | Minimum Effective Dose |
| --- | --- |
| COc1ccc(-c2cc(=O)c3c(O)cc(O[C@@H]4O[C@H](CO[C@@H]5O[C@@H](C)[C@H](O)[C@@H](O)[C@H]5O)[C@@H](O)[C@H](O)[C@H]4O)cc3o2)cc1O [Diosmin] | 33 mg |
| O=c1c(O)c(-c2ccc(O)cc2)oc2cc(O)cc(O)c12 [Kaempferol] | 16 mg |
| COc1ccc([C@@H]2CC(=O)c3c(O)cc(O[C@@H]4O[C@H](CO[C@@H]5O[C@@H](C)[C@H](O)[C@@H](O)[C@H]5O)[C@@H](O)[C@H](O)[C@H]4O)cc3O2)cc1O [Hesperidin] | 33 mg |
| COc1ccc([C@@H]2CC(=O)c3c(O)cc(O[C@@H]4O[C@H](CO)[C@@H](O)[C@H](O)[C@H]4O[C@@H]4O[C@@H](C)[C@H](O)[C@@H](O)[C@H]4O)cc3O2)cc1O [Neohesperidin] | 33 mg |
| CCCCC[C@H](O)CC(=O)CCc1ccc(O)c(OC)c1 [6-Gingerol] | 16 mg |

Would you kindly look at the next entry?
Ask: # get_value(readout= Minimum Effective Dose, system= human liver microsomal cytochrome P450 2E1 (CYP2E1) (Homo sapiens)) for O=c1c(O)c(-c2ccc(O)c(O)c2)oc2cc(O)cc(O)c12 [Quercetin]
Result: 16 mg
